All values here come from patent US20240043504A1.

- MEASUREMENT_TARGET: SARS-CoV-2 Spike Protein (S1 Subunit, His Tag) (Sino 40591-V08H) (SARS-CoV-2, UniProt P0DTC2 16-685)
- PROTOCOL_NOTES: Luminex, supernatant
Listed here are binders together with their documented MFI.

{"BINDER": "mAb10986 (antibody, V domains shown) VH: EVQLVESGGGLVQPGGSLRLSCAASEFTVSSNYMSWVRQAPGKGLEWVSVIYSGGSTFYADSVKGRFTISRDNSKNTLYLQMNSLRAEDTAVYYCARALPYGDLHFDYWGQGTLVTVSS VL: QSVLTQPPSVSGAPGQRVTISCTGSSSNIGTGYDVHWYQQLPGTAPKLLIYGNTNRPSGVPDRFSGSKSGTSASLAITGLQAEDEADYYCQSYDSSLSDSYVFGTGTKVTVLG", "MFI, MFI": 19100}
{"BINDER": "mAb10971 (antibody, V domains shown) VH: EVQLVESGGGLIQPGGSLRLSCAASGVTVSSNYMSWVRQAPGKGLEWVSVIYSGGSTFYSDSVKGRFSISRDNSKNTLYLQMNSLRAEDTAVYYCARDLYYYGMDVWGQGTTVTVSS VL: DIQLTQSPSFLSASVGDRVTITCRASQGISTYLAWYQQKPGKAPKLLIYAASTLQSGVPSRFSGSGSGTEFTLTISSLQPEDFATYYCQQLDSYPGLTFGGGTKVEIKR", "MFI, MFI": 21600}
{"BINDER": "mAb10954 (antibody, V domains shown) VH: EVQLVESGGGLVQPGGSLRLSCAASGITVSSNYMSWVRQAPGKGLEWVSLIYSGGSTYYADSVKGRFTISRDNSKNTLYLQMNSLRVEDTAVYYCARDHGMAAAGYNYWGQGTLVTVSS VL: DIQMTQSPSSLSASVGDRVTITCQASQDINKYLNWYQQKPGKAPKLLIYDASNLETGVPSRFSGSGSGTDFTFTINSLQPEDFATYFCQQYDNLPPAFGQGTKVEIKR", "MFI, MFI": 21300}
{"BINDER": "mAb10967 (antibody, V domains shown) VH: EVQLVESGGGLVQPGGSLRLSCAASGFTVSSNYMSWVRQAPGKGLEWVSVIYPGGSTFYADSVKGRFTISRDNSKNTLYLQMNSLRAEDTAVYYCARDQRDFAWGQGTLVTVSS VL: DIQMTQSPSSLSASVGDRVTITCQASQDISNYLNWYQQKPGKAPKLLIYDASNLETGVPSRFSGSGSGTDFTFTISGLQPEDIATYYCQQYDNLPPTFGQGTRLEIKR", "MFI, MFI": 21900}
{"BINDER": "mAb10935 (antibody, V domains shown) VH: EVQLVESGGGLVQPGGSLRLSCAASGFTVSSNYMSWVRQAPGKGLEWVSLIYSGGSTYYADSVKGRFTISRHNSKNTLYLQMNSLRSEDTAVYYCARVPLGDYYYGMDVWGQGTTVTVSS VL: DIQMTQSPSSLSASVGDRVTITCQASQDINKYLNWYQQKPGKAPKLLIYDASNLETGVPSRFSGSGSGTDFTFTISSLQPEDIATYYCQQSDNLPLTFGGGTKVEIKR", "MFI, MFI": 25600}
{"BINDER": "mAb10957 (antibody, V domains shown) VH: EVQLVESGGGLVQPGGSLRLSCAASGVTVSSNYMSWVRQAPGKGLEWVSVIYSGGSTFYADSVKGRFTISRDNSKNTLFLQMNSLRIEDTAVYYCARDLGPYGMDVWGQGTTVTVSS VL: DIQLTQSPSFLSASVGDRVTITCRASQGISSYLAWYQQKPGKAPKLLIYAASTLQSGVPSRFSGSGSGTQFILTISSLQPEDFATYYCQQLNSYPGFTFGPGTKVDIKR", "MFI, MFI": 12000}
{"BINDER": "mAb10921 (antibody, V domains shown) VH: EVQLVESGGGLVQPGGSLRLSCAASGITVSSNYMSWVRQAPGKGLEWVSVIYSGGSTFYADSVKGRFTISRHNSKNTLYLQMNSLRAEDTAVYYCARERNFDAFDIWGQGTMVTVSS VL: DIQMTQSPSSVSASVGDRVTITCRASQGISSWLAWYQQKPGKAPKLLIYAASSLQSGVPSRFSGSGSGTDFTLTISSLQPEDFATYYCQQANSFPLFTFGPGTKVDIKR", "MFI, MFI": 12200}
{"BINDER": "mAb10964 (antibody, V domains shown) VH: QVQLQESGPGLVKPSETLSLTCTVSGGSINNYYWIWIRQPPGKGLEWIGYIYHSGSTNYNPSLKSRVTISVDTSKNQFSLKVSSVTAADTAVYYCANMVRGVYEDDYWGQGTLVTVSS VL: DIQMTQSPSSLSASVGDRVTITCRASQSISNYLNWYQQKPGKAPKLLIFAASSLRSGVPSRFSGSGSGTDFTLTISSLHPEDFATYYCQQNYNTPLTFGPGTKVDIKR", "MFI, MFI": 24200}
{"BINDER": "mAb10939 (antibody, V domains shown) VH: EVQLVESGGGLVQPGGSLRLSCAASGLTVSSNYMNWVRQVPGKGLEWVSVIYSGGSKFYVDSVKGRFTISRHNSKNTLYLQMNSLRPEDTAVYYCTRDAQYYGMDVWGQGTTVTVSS VL: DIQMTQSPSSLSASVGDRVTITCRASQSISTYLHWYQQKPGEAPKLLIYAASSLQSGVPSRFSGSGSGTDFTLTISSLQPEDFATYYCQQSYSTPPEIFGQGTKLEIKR", "MFI, MFI": 23900}
